system: SN12C renal; assay: NCI-60 one-dose screen, 48 h; conditions: 10 µM unless noted
This is part of a sample that, as a whole, favours compounds with a hit. Of some 83,000 tested, about 20% had one in any assay. Activity calls are given as the source filed them. Rule for the calls: active = growth percent below 10; inactive = the rest.
Classes used: yes (1) = active, no (0) = inactive

>  <compound>
CC1Cc2c(ncn3c(-c4ccc(F)cc4)nnc23)N(C)c2ccccc21 (stereo not drawn)

>  <qualitative.label>
no (0)

$$$$
>  <compound>
Cc1cccc(OCC(O)CN2CCN(c3ccc(Cl)cc3)CC2)c1 (stereo not drawn)

>  <qualitative.label>
no (0)

$$$$
>  <compound>
CCCCCCNC(=O)Oc1ccc(/C(=C(\C)c2ccc(Cl)cc2)c2ccc(OCCCN(C)C)cc2)cc1

>  <qualitative.label>
no (0)

$$$$
>  <compound>
C=C1C(=O)O[C@H]2[C@H]1CC/C(COC(=O)NCCOCCOCC(=O)Nc1ccc(OC)c(C(N)=O)c1O)=C\CC[C@@]1(C)O[C@@H]21

>  <qualitative.label>
no (0)

$$$$
>  <compound>
Fc1cc(-c2nnc3n2NC(=Nc2ccc(Cl)cc2)CS3)c(Cl)cc1Cl

>  <qualitative.label>
no (0)

$$$$
>  <compound>
O=C(Nc1ccc(F)cc1F)c1cc(F)ccc1O

>  <qualitative.label>
yes (1)

$$$$
>  <compound>
CCc1cccc2c1S/C(=C/c1ccc(Cl)cc1)C2=O

>  <qualitative.label>
no (0)

$$$$
>  <compound>
Cc1ccc(-c2nc3c(c(-c4ccccc4)nn3-c3ccccc3)c(-c3ccc(O)cc3)c2C#N)cc1

>  <qualitative.label>
no (0)

$$$$
>  <compound>
COc1cc(/C=C/c2ccccc2)cc(OC)c1

>  <qualitative.label>
no (0)

$$$$
>  <compound>
N#Cc1ccc(NC(=O)c2sc3nc4c(cc3c2N)C(=O)CCC4)cc1

>  <qualitative.label>
no (0)

$$$$
>  <compound>
CC[C@H](C)C(=O)O[C@H]1CCC=C2C=C[C@H](C)[C@H](CC[C@@H]3CC=CC(=O)O3)[C@H]21

>  <qualitative.label>
no (0)

$$$$
>  <compound>
COc1ccc2[nH]c(-c3ccccc3)c(/C=C(\C#N)S(=O)(=O)c3ccccc3)c2c1

>  <qualitative.label>
no (0)

$$$$
>  <compound>
COc1cc2cc(Oc3ccc(NC(=O)Nc4ccc(Cl)c(C(F)(F)F)c4)cc3)c(C)nc2cc1OCCN1CCOCC1

>  <qualitative.label>
no (0)

$$$$
>  <compound>
COc1cccc(-c2nc(-c3ccc(NC(=O)OC(C)C)cc3)[nH]c2-c2ccnc(Br)c2)c1

>  <qualitative.label>
no (0)

$$$$
>  <compound>
C=C1C(=O)O[C@H]2[C@H]1CC/C(COC(=O)C(C)c1ccc(CC(C)C)cc1)=C\CC[C@@]1(C)O[C@@H]21 (stereo partly drawn)

>  <qualitative.label>
no (0)

$$$$
>  <compound>
O=C(N/N=C/[C@@H](O)[C@H](O)[C@H](O)CO)c1ccc(NC(=O)c2cccnc2)cc1

>  <qualitative.label>
no (0)

$$$$
>  <compound>
CCOC(=O)CC1C(COC(=O)NC)OC(n2cnc3c(NC(=O)Nc4ccccc4)ncnc32)C1O[Si](C)(C)C(C)(C)C (stereo not drawn)

>  <qualitative.label>
no (0)

$$$$
>  <compound>
CN1CCN(c2ccc(-c3cnc4c(-c5csc6ccccc56)cnn4c3)cc2)CC1

>  <qualitative.label>
yes (1)

$$$$
>  <compound>
CN1C(=O)CNC(=O)[C@H](NC(=O)c2nc3ccccc3cc2O)CSSC[C@H]1C(=O)NCCCc1nc2ccccc2cc1O

>  <qualitative.label>
no (0)

$$$$
>  <compound>
COc1ccc2cc(C(C)C(=O)Nc3ccc(-c4n[nH]c(=S)n4C4CCCCC4)cc3)ccc2c1 (stereo not drawn)

>  <qualitative.label>
no (0)

$$$$
>  <compound>
Cc1ccc(S(=O)(=O)Oc2ccc(NC(=O)c3ccc(Cl)cc3)cc2)cc1

>  <qualitative.label>
no (0)

$$$$
>  <compound>
O=C(/C=C/c1sc(Cl)nc1Cl)c1ccc(Br)cc1

>  <qualitative.label>
no (0)

$$$$
>  <compound>
O=C(O)c1cn(C2CC2)c2cc(N3CCN(C(=O)Nc4nc(-c5ccc(Cl)cc5)cs4)CC3)c(F)cc2c1=O

>  <qualitative.label>
yes (1)

$$$$
>  <compound>
CN(C)CCS(=O)(=O)Nc1cc(-c2ccc3ncc(C#N)c(Nc4ccc(F)c(Cl)c4)c3c2)cnc1Cl

>  <qualitative.label>
yes (1)

$$$$
>  <compound>
CC1=NN(c2ccc(S(=O)(=O)O)cc2)C(=O)C1N=Nc1ccc(-c2ccc(N=Nc3ccc(OS(=O)(=O)c4ccc(C)cc4)cc3)c(S(=O)(=O)O)c2)cc1 (stereo not drawn)

>  <qualitative.label>
no (0)

$$$$
>  <compound>
CN(C)CCN1CCN(c2ncccc2C2Nc3ccccc3-n3cccc32)CC1 (stereo not drawn)

>  <qualitative.label>
no (0)

$$$$
>  <compound>
COc1cc2cc(Oc3ccc(NC(=O)Nc4cc(C(F)(F)F)cc(C(F)(F)F)c4)cc3)c(C)nc2cc1OCCN1CCOCC1

>  <qualitative.label>
yes (1)

$$$$
>  <compound>
O=c1ccn(Cc2cn(-c3c4ccccc4nc4ccccc34)nn2)c(=O)[nH]1

>  <qualitative.label>
no (0)

$$$$
>  <compound>
Cc1ccc(C(CC(=O)O)c2c(C)[nH][nH]c2=O)cc1 (stereo not drawn)

>  <qualitative.label>
no (0)

$$$$
>  <compound>
O=C(Cc1ccc(F)c(Cl)c1)Nc1cc(C2(C(F)(F)F)CC2)nn1Cc1ccccc1

>  <qualitative.label>
no (0)

$$$$
>  <compound>
CC1(C)C2CC1C1(/C=N\Nc3ccccc3)C(C2)C(C#N)(C#N)C1(C#N)C#N (stereo not drawn)

>  <qualitative.label>
no (0)

$$$$
>  <compound>
Cc1cc(-c2cc(C)c(N)cc2C)c(C)cc1N

>  <qualitative.label>
no (0)

$$$$
>  <compound>
CNC(C)[C@H]1CCC2C3CCC4C[C@@H](N(C)C(=O)c5ccccc5)CC[C@]4(C)C3CC[C@@]21C (stereo partly drawn)

>  <qualitative.label>
no (0)

$$$$

* * *

test system: HOP-62 NSCLC; assay: NCI-60 one-dose screen, 48 h; conditions: 10 µM unless noted
This is part of a sample that, as a whole, favours compounds with a hit. Of some 83,000 tested, about 20% had one in any assay. Calls of active or inactive are those of the source. Rule for the calls: active = growth percent below 10; inactive = the rest.
Classes used: 1 for active, -1 for inactive

>  <compound>
COc1cc(C(=O)c2cc(C)c3[nH]c4ccc(O)cc4c3c2C)cc(OC)c1OC

>  <qualitative.label>
-1

$$$$
>  <compound>
Fc1cc(-c2nnc3sc(-c4ccc(Cl)cc4Cl)nn23)c(Cl)cc1Cl

>  <qualitative.label>
-1

$$$$
>  <compound>
COc1c(C2CC(=O)Nc3c2c(C)nn3-c2nc3ccccc3[nH]2)cc2c(c1OC)OCO2 (centres undefined)

>  <qualitative.label>
-1

$$$$
>  <compound>
Cc1nc(S(=O)(=O)c2ccccc2)c(S(=O)(=O)Cc2ccc([N+](=O)[O-])cc2)o1

>  <qualitative.label>
-1

$$$$
>  <compound>
NCCOc1ncccc1/C=C1\C2C=CC=CC2C2C=CC(F)=CC12 (centres undefined)

>  <qualitative.label>
-1

$$$$
>  <compound>
O=C(Cc1ccc(F)c(Cl)c1)Nc1cc(C2(C(F)(F)F)CC2)nn1Cc1ccccc1

>  <qualitative.label>
1

$$$$
>  <compound>
O=C1/C(=C/c2ccccc2[N+](=O)[O-])Oc2ccc(O)c(O)c21

>  <qualitative.label>
-1

$$$$
>  <compound>
NC[C@@H]1O[C@H](O[C@@H]2[C@@H](CO)OC(O[C@@H]3[C@@H](O)[C@H](N)C[C@H](N)[C@H]3OC3O[C@H](CN)[C@@H](O)[C@H](O)[C@H]3N)[C@@H]2O)[C@H](N)[C@@H](O)[C@@H]1O (some centres undefined)

>  <qualitative.label>
-1

$$$$
>  <compound>
Cc1cc2[nH]c(=O)c3c4ncccc4cn3c2cc1C

>  <qualitative.label>
-1

$$$$
>  <compound>
Cc1oc2nc[nH]c(=O)c2c1C(=O)/C=C/c1ccc(Br)cc1

>  <qualitative.label>
-1

$$$$
>  <compound>
CCOC(=O)c1cn2ncnc(Oc3ccc(NC(=O)NCCN(C)C)c(Cl)c3)c2c1C

>  <qualitative.label>
-1

$$$$
>  <compound>
COc1ccc(/C=C(/C#N)n2nnc3cccc(F)c32)cc1

>  <qualitative.label>
-1

$$$$
>  <compound>
CC1(C)C2CC1C1(/C=N\Nc3ccccc3)C(C2)C(C#N)(C#N)C1(C#N)C#N (centres undefined)

>  <qualitative.label>
-1

$$$$
>  <compound>
Cn1cc(C(=O)c2nc(-c3cn(C)c4ccc(F)cc34)no2)c2cc(F)ccc21

>  <qualitative.label>
-1

$$$$
>  <compound>
O=C(Nc1c2ccccc2nc2ccccc12)c1ccccc1CN1C(=O)c2ccccc2C1=O

>  <qualitative.label>
-1

$$$$
>  <compound>
Cc1nn(-c2ccccc2)c(-n2ccnc2)c1/C=N/Nc1nc(-c2ccc(Cl)c(Cl)c2)cs1

>  <qualitative.label>
-1

$$$$
>  <compound>
O=C(/C=C/c1sc(Cl)nc1Cl)c1ccc(F)cc1

>  <qualitative.label>
-1

$$$$
>  <compound>
c1ccc(CO[C@H]2CO[C@H]3[C@@H]2OC[C@@H]3Oc2ccc(Nc3ncnc4ccsc34)cc2)cc1

>  <qualitative.label>
-1

$$$$
>  <compound>
COc1cc2cc(Oc3ccc(NC(=O)Nc4cc(C(F)(F)F)cc(C(F)(F)F)c4)cc3)c(C)nc2cc1OCCN1CCOCC1

>  <qualitative.label>
-1

$$$$
>  <compound>
COc1cc2cc(Oc3ccc(NC(=O)Nc4cccc(C(F)(F)F)c4)cc3)c(C)nc2cc1OCCN1CCOCC1

>  <qualitative.label>
-1

$$$$
>  <compound>
FC(F)(F)c1cc(Nc2ccc3c(OCCCN4CCOCC4)cccc3n2)ccc1Cl

>  <qualitative.label>
-1

$$$$
>  <compound>
COc1cc(CNS(=O)(=O)c2ccc(C)cc2)ccc1OCc1cn(-c2ccccc2)nn1

>  <qualitative.label>
-1

$$$$
>  <compound>
O=c1c2cc(F)cc(Cl)c2sc2c(NCCCNCCO)nc3ccccc3c12

>  <qualitative.label>
-1

$$$$
>  <compound>
O=C(O)C(c1ccccc1)N1C(=O)CSC1=S (centres undefined)

>  <qualitative.label>
-1

$$$$
>  <compound>
Nc1nc2ccccc2c2c(=O)c3cc(F)ccc3sc12

>  <qualitative.label>
-1

$$$$
>  <compound>
Cc1ccc2c(n1)C(=O)C(Cl)=C(Nc1ccccc1C(C)C)C2=O

>  <qualitative.label>
-1

$$$$
>  <compound>
CCOC(=O)NCCc1ccccc1

>  <qualitative.label>
-1

$$$$
>  <compound>
CCCCCCCCCCCCCCCCCCOc1ccc(CC(=O)OCC[N+](C)(C)C)cc1

>  <qualitative.label>
-1

$$$$
>  <compound>
Cc1ncc(C(=O)Nc2ccc(CN3CCN(C)CC3)c(C(F)(F)F)c2)cc1C#Cc1ccc(N)nc1

>  <qualitative.label>
-1

$$$$

Origin of the recorded values: PubChem BioAssay (NCI)
